- assayed_target: T1, PmrAC (C-terminal effector/DNA-binding domain of PmrA) (Klebsiella pneumoniae, UniProt W9BNR5 121-223)
- T1 sequence: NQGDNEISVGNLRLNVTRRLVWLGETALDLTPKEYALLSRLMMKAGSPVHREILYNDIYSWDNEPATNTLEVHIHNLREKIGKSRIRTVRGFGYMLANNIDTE
- assay_summary: ITC; 1:1 stoichiometry; 0.5 mM EDTA; 20 mM sodium phosphate, 30 mM NaCl, pH 6.0; FP with 12 nM 6-FAM DNA (temperature not stated); ITC plus 0.5 mM EDTA at 25 C; NMR at 298 K
- stated_conditions: protein: recombinant; tags: N-terminal extra Met; chain copies: 2; blunt

# binder, Kd (µM)
data = [
    ("box2b (dsDNA) DNA 1: CGTTTAAGTCCG DNA 2: CGGACTTAAACG", 36.5),
]
